Tested on: Clytia MIHR
Assay: Dose–response curves of Clytia MIHR, luminescence (CHO-K1 cells, Gα-16, GFP-apoaequorin)
Type: cell-based, Clytia hemisphaerica
Settings: first dataset; best-fit value
Peptide text beside a SMILES is read from it.
LogEC50 by entry:

# Molecule, LogEC50
records = [
    ("N=C(N)NCCC[C@H](NC(=O)[C@@H]1CCCN1C(=O)[C@@H](N)CCCNC(=N)N)C(=O)N[C@@H](Cc1ccc(O)cc1)C(N)=O [RPRYa] (H-RPRY-NH2; N-terminus assumed)", -7.239),
    ("C[C@H](NC(=O)[C@H](CCCNC(=N)N)NC(=O)[C@@H]1CCCN1C(=O)[C@@H](N)Cc1c[nH]c2ccccc12)C(N)=O [WPRAa] (H-WPRA-NH2; N-terminus assumed)", -6.854),
    ("N=C(N)NCCC[C@H](NC(=O)[C@@H]1CCCN1C(=O)[C@@H](N)CCCNC(=N)N)C(=O)NCC(N)=O [RPRGa] (H-RPRG-NH2; N-terminus assumed)", -6.14),
    ("N=C(N)NCCC[C@H](NC(=O)[C@@H]1CCCN1C(=O)[C@@H](N)Cc1c[nH]c2ccccc12)C(=O)N1CCC[C@H]1C(N)=O [WPRPa] (H-WPRP-NH2; N-terminus assumed)", -6.658),
]
